# TEST_METHOD_NOTES: DL50 mouse p.o.
# TEST_CONTEXT: in vivo, po, limits of reliability (p : 0.95) in brackets
EXPERIMENTAL_ENDPOINT: LD50

molecule="CCCCNC(C)C(O)c1ccc(SC)cc1 (centres unmarked)" val="~100 mg/kg"
molecule="CCCCCCCNC(C)C(O)c1ccc(SC(C)C)cc1 (centres unmarked)" val="~2400 mg/kg"
molecule="CCCCCCCCNC(CC)C(O)c1ccc(SCC)cc1 (centres unmarked)" val="~2450 mg/kg"
molecule="CCCCCCCCNC(C)C(O)c1ccc(SC2CCCCC2)cc1 (centres unmarked)" val="~5000 mg/kg"
molecule="CCCCCCCCNC(CC)C(O)c1ccc(SC)cc1 (centres unmarked)" val="~3500 mg/kg"

Data provenance: patent US4228187A
